Data origin, for the record: paper PMC9574867

# pIC50 listing for each entry below
Target: ColQ1-CU (Bacillus cereus)
Sequence (B9J3S4 94-765 limits assumed): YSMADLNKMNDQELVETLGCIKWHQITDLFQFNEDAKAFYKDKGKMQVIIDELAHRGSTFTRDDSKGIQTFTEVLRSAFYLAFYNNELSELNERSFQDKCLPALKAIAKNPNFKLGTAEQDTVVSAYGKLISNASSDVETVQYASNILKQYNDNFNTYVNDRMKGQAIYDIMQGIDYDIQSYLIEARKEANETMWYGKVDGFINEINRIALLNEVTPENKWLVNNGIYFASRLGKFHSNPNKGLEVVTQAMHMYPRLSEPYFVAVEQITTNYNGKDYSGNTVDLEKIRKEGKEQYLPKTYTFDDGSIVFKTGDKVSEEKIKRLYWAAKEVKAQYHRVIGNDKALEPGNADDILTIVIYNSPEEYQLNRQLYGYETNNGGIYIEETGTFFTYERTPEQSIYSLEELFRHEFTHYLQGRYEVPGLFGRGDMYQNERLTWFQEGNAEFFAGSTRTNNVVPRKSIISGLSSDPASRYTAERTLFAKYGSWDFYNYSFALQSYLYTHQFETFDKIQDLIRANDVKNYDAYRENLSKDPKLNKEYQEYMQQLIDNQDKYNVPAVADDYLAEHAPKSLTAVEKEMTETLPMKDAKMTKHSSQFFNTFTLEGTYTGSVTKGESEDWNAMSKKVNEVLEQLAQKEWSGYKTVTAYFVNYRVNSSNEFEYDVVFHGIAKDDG
Test: biochemical
pIC50: −log10 of the molar value.
measurement-name: pIC50

> print(dat)
                                    compound           target.under.test  test.value
 1      O=P(O)(O)c1nc2ccc(Br)cc2nc1P(=O)(O)O  ColQ1-CU (Bacillus cereus)        5.60
 2  O=C(Nc1ccc(Cl)c(Cl)c1)c1ccc2nc(P(=O)(O)O)c(P(=O)(O)O)nc2c1  ColQ1-CU (Bacillus cereus)        4.80
 3  CC(=O)Nc1ccc(OCc2cn(CCNC(=O)C(CC(C)C)C(=O)NO)nn2)cc1 (stereo not shown)  ColQ1-CU (Bacillus cereus)        4.46
 4  CC(C)CC(C(=O)NO)C(=O)NCCn1cc(COc2ccccc2F)nn1 (stereo not shown)  ColQ1-CU (Bacillus cereus)        4.79
 5  CC(C)CC(C(=O)NO)C(=O)NCCn1cc(CSc2ccccc2)nn1 (stereo not shown)  ColQ1-CU (Bacillus cereus)        5.00
 6  O=P(O)(O)c1nc2cc(Cl)c(Cl)cc2nc1P(=O)(O)O  ColQ1-CU (Bacillus cereus)        5.28
 7      O=P(O)(O)c1nc2ccc(Cl)cc2nc1P(=O)(O)O  ColQ1-CU (Bacillus cereus)        5.40
 8  CC(=O)Nc1ccccc1OCc1cn(CCNC(=O)C(Cc2ccccc2)C(=O)NO)nn1 (stereo not shown)  ColQ1-CU (Bacillus cereus)        5.80
 9     Cc1ccc2nc(P(=O)(O)O)c(P(=O)(O)O)nc2c1  ColQ1-CU (Bacillus cereus)        5.47
10  CC(C)CC(C(=O)NO)C(=O)NCCn1cc(COc2ccccc2)nn1 (stereo not shown)  ColQ1-CU (Bacillus cereus)        4.92
11  CC(=O)Nc1cccc(OCc2cn(CCNC(=O)C(CC(C)C)C(=O)NO)nn2)c1 (stereo not shown)  ColQ1-CU (Bacillus cereus)        4.46
12  CC(=O)Nc1ccccc1OCc1cn(CCNC(=O)C(CC(C)C)C(=O)NO)nn1 (stereo not shown)  ColQ1-CU (Bacillus cereus)        5.92
13  O=P(O)(O)c1nc2ccc(-c3ccc(Cl)cc3)cc2nc1P(=O)(O)O  ColQ1-CU (Bacillus cereus)        4.98

###

Parameter: IC50. Scope: all listed entries.
Biological target: MMP-1 (Homo sapiens)
Construct: catalytic domains of three human MMPs; purchased Sigma-Aldrich
Sequence (P03956 98-276 limits assumed): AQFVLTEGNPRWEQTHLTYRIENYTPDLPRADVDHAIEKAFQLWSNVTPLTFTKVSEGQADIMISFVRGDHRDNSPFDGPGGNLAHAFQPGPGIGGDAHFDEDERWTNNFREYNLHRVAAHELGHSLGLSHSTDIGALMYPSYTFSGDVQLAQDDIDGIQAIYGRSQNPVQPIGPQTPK
Assay: MMP inhibition assay, MMP-1
Assay type: biochemical
measurement-name: IC50

> print(dat)
                                   compound  test.value
1  O=P(O)(O)c1nc2ccc(-c3ccc(Cl)cc3)cc2nc1P(=O)(O)O [Compound 15]    > 100 µM
2  CC(=O)Nc1ccccc1OCc1cn(CCNC(=O)C(CC(C)C)C(=O)NO)nn1 (stereo not drawn) [Compound 27]    > 100 µM
3  O=P([O-])(O)C(Sc1ccc(Cl)cc1)P(=O)([O-])O.[Na+].[Na+] [Tiludronate disodium, reference compound]       50 µM
4  O=P(O)(O)c1nc2cc(Cl)c(Cl)cc2nc1P(=O)(O)O [Compound 13]       53 µM
5  O=C(Nc1ccc(Cl)c(Cl)c1)c1ccc2nc(P(=O)(O)O)c(P(=O)(O)O)nc2c1 [Compound 14]    > 100 µM
6  NCCCC(O)(P(=O)([O-])O)P(=O)(O)O.[Na+] [Alendronate sodium, reference compound]    > 100 µM
